Assay: Extrapolated human dosimetry (OLINDA/EXM, ICRP-89 phantoms)
Conditions: ICRP 89 Adult Male, extrapolated
Observable: Absorbed dose (AD average) Urinary Bladder Wall (mGy/Mbq)
Numbers only, in mGy/Mbq.

Query N#C[C@@H]1CC(F)(F)CN1C(=O)CNC(=O)c1ccnc2ccc(OCCCCNC(=O)CC[C@H](NC(=O)CCC(C(=O)O)N3CCN(CC(=O)[O-])CCN(CC(=O)[O-])CCN(CC(=O)[O-])CC3)C(=O)NCCCCOc3ccc4nccc(C(=O)NCC(=O)N5CC(F)(F)C[C@H]5C#N)c4c3)cc12.[161Tb+3] (stereo partly shown) [[^161Tb]Tb-DOTAGA.Glu.(FAPI)2] yields Absorbed dose (AD average) Urinary Bladder Wall of 2.75E-02

Attribution: paper PMC12860872
